FYI, the data here is from patent US9593155B2.

experimental.target: hGCGR (Homo sapiens)
Sequence (P47871 26-477): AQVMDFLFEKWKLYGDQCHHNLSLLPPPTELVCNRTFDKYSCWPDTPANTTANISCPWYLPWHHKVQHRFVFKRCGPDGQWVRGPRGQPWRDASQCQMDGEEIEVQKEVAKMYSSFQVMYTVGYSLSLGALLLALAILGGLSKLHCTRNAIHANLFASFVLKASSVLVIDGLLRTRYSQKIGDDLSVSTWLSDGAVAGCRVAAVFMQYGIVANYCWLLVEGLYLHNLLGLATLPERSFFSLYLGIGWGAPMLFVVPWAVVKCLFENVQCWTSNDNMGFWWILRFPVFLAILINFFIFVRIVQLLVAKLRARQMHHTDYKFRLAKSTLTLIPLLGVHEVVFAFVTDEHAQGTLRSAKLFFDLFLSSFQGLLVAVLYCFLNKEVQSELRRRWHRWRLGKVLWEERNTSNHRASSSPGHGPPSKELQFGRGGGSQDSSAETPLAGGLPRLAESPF
assay.text: fluorescence cell based cAMP assay, CHO cells stably expressing GCGR
measurement.parameters: GCGR EC50, Table 4
Where no end group is shown, it is not given here.
property.name: pEC50
Just so you know, pEC50 here is -log10 of the concentration in molar units; reply with that number alone.

**Query** Form entry - test system: hGCGR (Homo sapiens); read-out: pEC50; sequence: HSEGTFTSDYSKYLDSRRAQDFVQWLMNTKRNRNNIA [OXM-Q3E]
**Result** 5.79
